Consider the following compounds; for each one, report its growth.
Tested on: 786-0 renal
METHOD: NCI-60 one-dose screen, 48 h (100 = growth as untreated, 0 = no growth, -100 = all killed)
MEASUREMENT CONDITIONS: 10 µM unless noted
The panel holds about 83,000 compounds, 20% with a hit somewhere; the sample as a whole holds those more often.
Output spec: scalar in %, unitless text.

**Query** Fill in the blank: the reported growth of `COc1ccc(S(=O)(=O)NCCNc2nccc(-c3c(-c4ccccc4)nc4sccn34)n2)cc1` is ____.
**Result** 32

**Query** Fill in the blank: the reported growth of `O=C(O)c1cn(C2CC2)c2cc(N3CCN(S(=O)(=O)c4ccc(Cl)c(Cl)c4)CC3)c(F)cc2c1=O` is ____.
**Result** 27.8

**Query** Fill in the blank: the reported growth of `CCN(Cc1ccc(CN(CC)C(=O)C(Br)Br)cc1)C(=O)C(Br)Br` is ____.
**Result** 59.4

**Query** Fill in the blank: the reported growth of `Cn1cc(C=O)c2ccccc21` is ____.
**Result** 99.2

**Query** Fill in the blank: the reported growth of `Cc1cc(C)c2c(=O)[nH]c(SCC(=O)Nc3cccc(S(=O)(=O)N(C)C)c3)nc2n1` is ____.
**Result** 93.2

**Query** Fill in the blank: the reported growth of `CCO/C=N/NC(=O)c1ccncc1` is ____.
**Result** 105

**Query** Fill in the blank: the reported growth of `O=C1CCC(=O)N1Cc1ccccc1` is ____.
**Result** 104

**Query** Fill in the blank: the reported growth of `CCCOC(=O)C1(O)CCCC1` is ____.
**Result** 105

Provenance of the data: PubChem BioAssay (NCI)
